Reference source for all entries: patent US20190367619A1

# assay_target: T1, cynomolgus galectin-10-His, WGS isoform (cynomolgus)
# T1 construct: also called cynoGal10-WGS; not shown: His tag
# T1 chain: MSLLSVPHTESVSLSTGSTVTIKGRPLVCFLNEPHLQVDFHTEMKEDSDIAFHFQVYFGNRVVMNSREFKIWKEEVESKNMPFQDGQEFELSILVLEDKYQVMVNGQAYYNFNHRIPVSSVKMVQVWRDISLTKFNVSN
# assay_protocol: ELISA, coated antigen 0.2 ug/mL
metric: Bmax (OD)
Numeric answer only, unit OD assumed.

Lookup: Request the reported Bmax associated with 10B02 scFv-human Fc (Fc fusion, also called 010B02; not shown: CH2-CH3 constant domains of human IgG1 (pUPEX50 scFv-Fc fusion vector)) scFv: QVQLVESGGGLVQPGGSLRVSCAASGFTFSYHYMNWVRQAPGKGLEWVSGISAGGGRTYYADSVKGRFTISRDNAKNTLYLQMNSLNAEDTALYYCARVHGITNDYWGQGTQVTVSSGGGGSGGGGSGGGGSQSALTQPPSVSGSPGKTVTISCAGTSSDVGYGNYVSWYQQLPGMAPKLLIYEVNKRASGITDRFSGSKSGNTAFLTISGLQSEDEADYYCASYRNSNNWVFGGGTHLTVL
Found: 3.3

Lookup: // lookup Bmax for 11F02 scFv-human Fc (Fc fusion, also called 011F02; not shown: CH2-CH3 constant domains of human IgG1 (pUPEX50 scFv-Fc fusion vector)) scFv: ELQVVESGGGLVQPGGSLRLSCAASGFTFSTNYMNWVRQAPGKGLEWVSGITSHGARTYYADSVKGRFTISRDNSKNTLYLQMNSLKPEDTALYYCARTDHASLDAWGQGTLVTVSSGGGGSGGGGSGGGGSQTVVTQEPSLSVSPGGTVTLTCGLSSGSVTSSNYPGWYQQKPGQAPRTLIYNTNSRYSGVPNRFSGSISGNKAALTITGAQPEDEADYYCALYMGSSSYNTVFGGGTHLTVL
Found: 2.5

Lookup: I'd like to know its Bmax. The binder in question is 7B07 scFv-human Fc (Fc fusion, also called 007B07; not shown: CH2-CH3 constant domains of human IgG1 (pUPEX50 scFv-Fc fusion vector)) scFv: QVQLVESGGGLVQPGGSLRLSCAASGFTFRSYDMSWVRQAPGKGPEWVSAIKNGGGITYYADSVKGRFTISRDNAKNTLYLQMNSLKPEDTAVYYCATTHGIGTLGFGSWGQGTQVTVSSGGGGSGGGGSGGGGSSYELTQSASVSVALTQTAKITCDGNNIGSKSAQWYQQKPGQAPALVIYADEYRPEGIPERFSGSNSGNTATLIISGAQAEDEADYYCQVWDGSAAVFGRGTHLTVL
Found: 0.6

Lookup: Return reported Bmax; argument: 8H11 scFv-human Fc (Fc fusion, also called 008H11; not shown: CH2-CH3 constant domains of human IgG1 (pUPEX50 scFv-Fc fusion vector)) scFv: ELQLVESGGGLVQPGGSLRLSCAASGFTFSTNYMNWVRQAPGKGLEWVSGITSGGGRTYYADSVKGRFTISRDNAKNTLYLQMNSLKPEDTALYYCARTDHAWLDAWGQGTLVTVSSGGGGSGGGGSGGGGSQAGLTQPPSVSGTLGKTVTISCAGTSSDVGYGNYVSWYQQLPGTAPKLLIYAVSTRASGIPDRFSGSKSGNTASLTISGLLSEDEADYYCASYRSSNNYVFGGGTKLTVL
Found: 3.1
